Each recorded value in this set is attributed to the FLAb antibody collection (doi:10.7554/elife.23156).

Provide the recorded yeast surface expression for the entries that follow.
B1: scFv; the commonest letter at each place (parent)
chain 1: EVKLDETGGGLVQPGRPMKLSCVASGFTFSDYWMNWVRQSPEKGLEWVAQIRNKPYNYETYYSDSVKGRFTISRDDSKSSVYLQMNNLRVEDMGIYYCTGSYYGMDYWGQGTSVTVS
chain 2: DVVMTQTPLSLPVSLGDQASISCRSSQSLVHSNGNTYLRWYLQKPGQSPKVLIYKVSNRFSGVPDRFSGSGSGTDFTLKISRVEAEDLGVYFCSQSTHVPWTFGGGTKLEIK

Variants of: B1
experiment: yeast surface expression (ratio to wild type); higher = more expressed
experimental-parameters: format: scFv 4-4-20, heavy + light
Give bare numbers.

Use the examples below as a reference point.
chain 1 G100L G104S | 0.51
chain 1 G100T Y103E | 1.28
chain 1 Y103I W108C | 0.359
chain 1 G100I Y103H | 0.94
chain 1 F29M D31T | 0.848
chain 1 T28E S30V | 0.928
chain 1 Y32T V37H | 0.624
chain 1 F29L M34K W36P | 0.61
chain 1 D31E V37L | 0.735
chain 1 M105S D106E | 1.32

Proceed to the following item.
Item: chain 1 Y32M | yeast surface expression: 1.03
